- TESTED SYSTEM: IL-17A : IL-17RA binding (Homo sapiens, UniProt Q16552, K93Q)
- Construct: Name: IL-17A-Flag
- Sequence (Q16552 with tags, fused parts or gaps K93Q): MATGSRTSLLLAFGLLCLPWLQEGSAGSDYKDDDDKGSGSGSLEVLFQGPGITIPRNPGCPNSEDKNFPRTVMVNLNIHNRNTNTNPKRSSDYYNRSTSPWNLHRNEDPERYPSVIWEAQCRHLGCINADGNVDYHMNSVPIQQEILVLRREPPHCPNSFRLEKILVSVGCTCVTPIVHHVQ
- ASSAY NOTES: IL-17A(FLAG-tagged):IL-17RA(His-tagged) binding disruption Eu-HTRF assay, Protocol 1
- PARTICULARS: FLAG-IL-17A 2.5 nM at 2x final concentration; average if tested more than once
- Description: An antibody directed against the FLAG tag of IL-17A (SEQ ID NO: 1) is labeled with the HTRF donor chromophore (Europium-cryptate). […] The fluorescence-resonance energy transfer (FRET) depends on the vicinity of the donor chromophore to the acceptor, and interruption of the binding between the IL-17A and IL-17RA causes the reduction/loss of FRET. Therefore, this assay allows to evaluate the compound effect on the binding IL-17A and IL-17RA by monitoring the fluorescence intensity of donor vs acceptor. […]
PARAMETER: IC50

Known results for molecules:
[[record]]
molecule = "CC(CC(=O)N[C@H](C)c1ccc2nc([C@@H](NC(=O)c3cc(F)ccc3F)C3CCC(F)(F)CC3)[nH]c2c1)C(F)(F)F (single isomer, unassigned) [Example 140]"
tested_system = "IL-17A : IL-17RA binding (Homo sapiens, UniProt Q16552, K93Q)"
parameter = "IC50"
assay_value = "> 100 nM"

[[record]]
molecule = "CC(NC(=O)CCC(F)(F)F)c1ccc2nc([C@H](CC(C)(C)C(F)(F)F)NC(=O)c3ccnn3CCC(F)(F)F)[nH]c2c1 (single isomer, unassigned) [Example 230]"
tested_system = "IL-17A : IL-17RA binding (Homo sapiens, UniProt Q16552, K93Q)"
parameter = "IC50"
assay_value = "> 100 nM"

[[record]]
molecule = "Cn1nccc1C(=O)N[C@H](c1nc2cc(C(CC3CCC3)NC(=O)CCC(F)(F)F)ccc2[nH]1)C1CCC(F)(F)CC1 (single isomer, unassigned) [Example 47]"
tested_system = "IL-17A : IL-17RA binding (Homo sapiens, UniProt Q16552, K93Q)"
parameter = "IC50"
assay_value = "> 100 nM"

[[record]]
molecule = "C[C@@H](NC(=O)CCC(F)(F)F)c1ccc2[nH]c([C@@H](NC(=O)c3cnc4n3CCC4)C3CCC(F)(F)CC3)nc2c1"
tested_system = "IL-17A : IL-17RA binding (Homo sapiens, UniProt Q16552, K93Q)"
parameter = "IC50"
assay_value = "> 100 nM"

[[record]]
molecule = "C[C@@H](NC(=O)CCC(F)(F)F)c1ccc2[nH]c([C@@H](NC(=O)c3cnn(CC4CC4)n3)C3CCC(F)(F)CC3)nc2c1"
tested_system = "IL-17A : IL-17RA binding (Homo sapiens, UniProt Q16552, K93Q)"
parameter = "IC50"
assay_value = "> 100 nM"


Would you mind listing IC50 for each of the following molecules?
1. C[C@@H](NC(=O)CCC(F)(F)F)c1ccc2[nH]c([C@@H](NC(=O)c3cnn(CCC(F)(F)F)c3)C3CCC(F)(F)CC3)nc2c1
2. C[C@@H](NC(=O)CC(C(F)(F)F)C(F)(F)F)c1ccc2[nH]c([C@@H](NC(=O)c3cc(F)ccc3F)C3CCC(F)(F)CC3)nc2c1
3. C[C@@H](NC(=O)CCC(F)(F)F)c1ccc2[nH]c([C@@H](NC(=O)C3CC34CC4)C3CCC(F)(F)CC3)nc2c1 (some centres unmarked)
4. C[C@@H](NC(=O)CCC(F)(F)F)c1ccc2[nH]c([C@@H](NC(=O)c3cncn3CCC(F)(F)F)C3CCC(F)(F)CC3)nc2c1
5. CC(C)n1cnc(C(=O)N[C@H](c2nc3cc([C@@H](C)NC(=O)CCC(F)(F)F)ccc3[nH]2)C2CCC(F)(F)CC2)n1
6. Cc1n[nH]cc1C(=O)N[C@H](c1nc2cc([C@@H](C)NC(=O)CCC(F)(F)F)ccc2[nH]1)C1CCC(F)(F)CC1
7. CC(C)n1nccc1C(=O)N[C@@H](CO[C@@H](C)C(F)(F)F)c1nc2ccc([C@H](NC(=O)CC3CC(F)(F)C3)C3CC3)cc2[nH]1 (relative stereo)

Return:
1: > 100 nM; 2: > 100 nM; 3: > 100 nM; 4: > 100 nM; 5: > 100 nM; 6: > 100 nM; 7: < 50 nM

Would you mind listing IC50 for each of the following molecules?
1. C[C@@H](NC(=O)CCC(F)(F)F)c1ccc2[nH]c([C@@H](NC(=O)c3cnn(CCOC(F)F)c3)C3CCC(F)(F)CC3)nc2c1
2. CC(C)n1cccc1C(=O)N[C@H](c1nc2cc([C@@H](C)NC(=O)CCC(F)(F)F)ccc2[nH]1)C1CCC(F)(F)CC1
3. C[C@@H](NC(=O)CC(C(F)(F)F)C(F)(F)F)c1ccc2[nH]c([C@@H](NC(=O)c3ccnn3CCC(F)(F)F)C3CCC(F)(F)CC3)nc2c1
4. CC(C)n1nccc1C(=O)N[C@H](c1nc2ccc([C@H](NC(=O)CC3CC(F)(F)C3)C3CC3)cc2[nH]1)C1CC(F)(F)CCO1 (single isomer, unassigned)

Return:
["> 100 nM", "< 50 nM", "> 100 nM", "> 100 nM"]

Would you mind listing IC50 for each of the following molecules?
1. CC(C)n1nccc1C(=O)N[C@H](c1nc2cc([C@@H](NC(=O)CC3CC(F)(F)C3)C3CC3)ccc2[nH]1)C1CCC(F)(F)CC1
2. C[C@@H](NC(=O)CCC(F)(F)F)c1ccc2nc([C@@H](NC(=O)c3ccnn3CCC(F)(F)F)C3CCC(F)(F)CC3)[nH]c2c1
3. Cn1nccc1C(=O)N[C@H](c1nc2cc(C(CC3CCC3)NC(=O)CCC(F)(F)F)ccc2[nH]1)C1CCC(F)(F)CC1 (single isomer, unassigned) [Example 46]
4. C[C@@H](NC(=O)CCC(F)(F)F)c1ccc2[nH]c(C(CC(C)(C)C(F)(F)F)NC(=O)c3cnn(CC4CC4)n3)nc2c1 (single isomer, unassigned) [Example 191]
5. C[C@@H](NC(=O)CCC(F)(F)F)c1ccc2[nH]c([C@@H](NC(=O)c3conc3C3CC3)C3CCC(F)(F)CC3)nc2c1
6. CC(C)C(NC(=O)CCC(F)(F)F)c1ccc2[nH]c([C@@H](NC(=O)c3ccnn3C)C3CCC(F)(F)CC3)nc2c1 (single isomer, unassigned) [Example 44]

Return:
["> 100 nM", "> 100 nM", "> 100 nM", "> 100 nM", "50 to 100 nM", "> 100 nM"]

In plain terms, Cc1nonc1C(=O)N[C@@H](CC(C)(C)C(F)(F)F)c1nc2ccc([C@H](NC(=O)CC(C)C(F)(F)F)C3CC3)cc2[nH]1 (single isomer, unassigned) [Example 179] has a documented IC50 of < 50 nM

All figures here come from patent US20240376085A1.
